# ASSAY_SYSTEM: Mnk1 (Homo sapiens (Human), UniProt Q9BUB5)
# Sequence (Q9BUB5 whole entry): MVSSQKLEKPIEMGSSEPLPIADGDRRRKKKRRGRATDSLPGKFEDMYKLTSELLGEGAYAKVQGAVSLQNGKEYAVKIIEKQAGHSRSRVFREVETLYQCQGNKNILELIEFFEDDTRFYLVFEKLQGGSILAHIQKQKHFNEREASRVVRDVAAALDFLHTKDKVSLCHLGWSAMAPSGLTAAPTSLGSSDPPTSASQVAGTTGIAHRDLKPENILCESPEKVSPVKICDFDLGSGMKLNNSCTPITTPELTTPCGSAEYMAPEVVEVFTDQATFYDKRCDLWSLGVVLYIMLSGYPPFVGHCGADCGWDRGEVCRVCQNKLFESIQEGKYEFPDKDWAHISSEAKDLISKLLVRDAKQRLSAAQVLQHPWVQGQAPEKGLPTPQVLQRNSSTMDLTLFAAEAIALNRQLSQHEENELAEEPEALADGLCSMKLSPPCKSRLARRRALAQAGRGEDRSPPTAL
# ASSAY_INFO: Mnk1 kinase inhibition, ADP-Glo ADP monitoring assay
# Type: biochemical
# REPORTED_CONDITIONS: read-out: Mnk1 IC50
ASSAY_READOUT: IC50 (µM)

>>> result_value("c1ccc2c(c1)ncn2-c1ccnc(NC2CCCOC2)n1 (stereo not shown)")
0.39
>>> result_value("c1ccc2c(c1)ccn2-c1ccnc(NCCN2CCOCC2)n1")
9

(A) Cn1cc(-c2ccnc(NCc3ccc(F)cc3)n2)cn1
(B) c1ccc2c(c1)ncn2-c1ccnc(NCc2ccncc2)n1
INPUT: Out of A and B , name the one with the higher IC50. Your choice should be expressed through its label.
OUTPUT: A
(A: 9 µM, B: 0.5 µM)

---

Below, each entry is listed with its recorded IC50.
# ASSAY_SYSTEM: UniProt:Q9BUB5
# ASSAY_INFO: Mnk1 kinase inhibition, ADP-Glo ADP monitoring assay
# Assay type: biochemical
# REPORTED_CONDITIONS: unit inferred, read-out: Mnk1 IC50

>>> result_value("O=C(O)c1cc(-n2cnc3ccccc32)nc(NCCc2ccncc2)n1 [NUCC-0196239]")
"> 10 µM"

INPUT: What IC50 value was documented for this molecule, COC(=O)c1cc(-n2cnc3ccccc32)nc(NCCc2ccncc2)n1 [NUCC-0196230] ?
OUTPUT: > 10 µM

INPUT: What IC50 value was documented for this molecule, O[C@@H](c1ccccc1)[C@H](Nc1ccnc(-n2cnc3ccccc32)n1)c1ccccc1 [NUCC-0196258] ?
OUTPUT: > 10 µM

INPUT: What IC50 value was documented for this molecule, c1ccc(C2CC2Nc2nccc(-n3cnc4ccccc43)n2)cc1 (centres unmarked) [NUCC-0196255] ?
OUTPUT: > 10 µM

INPUT: What IC50 value was documented for this molecule, CCNC(=O)Nc1nccc(-n2cnc3ccccc32)n1 [NUCC-0196222] ?
OUTPUT: > 10 µM

---

# ASSAY_SYSTEM: Mnk1 (Homo sapiens (Human))
# ASSAY_INFO: Mnk1 kinase inhibition, ADP-Glo ADP monitoring assay
# Format: biochemical
# REPORTED_CONDITIONS: unit inferred, read-out: Mnk1 IC50
ASSAY_READOUT: IC50 (nM)

Illustrative cases are given below, each with its answer.
>>> result_value("O[C@H](c1ccccc1)[C@@H](Nc1nccc(-n2cnc3ccccc32)n1)c1ccccc1")
1300
>>> result_value("c1ccc2c(c1)ncn2-c1nccc(NCCc2c[nH]c3ccccc23)n1")
920

(1) c1ccc2c(c1)ncn2-c1ccnc(NCCc2ccncc2)c1
(2) Nc1cc(-n2cnc3ccccc32)nc(NCCc2ccncc2)n1
INPUT: // pick min by IC50: 1 , 2 Your choice should be expressed through its label.
OUTPUT: 2
(2: 870 nM, 1: 1300 nM)

---

# ASSAY_SYSTEM: UniProt Q9BUB5
# ASSAY_INFO: Mnk1 kinase inhibition, ADP-Glo ADP monitoring assay
# Assay type: biochemical
# REPORTED_CONDITIONS: read-out: Mnk1 IC50
ASSAY_READOUT: IC50 (µM)

>>> result_value("COC1CCC(Nc2nccc(-n3cnc4ccccc43)n2)CC1 (stereo not shown) [NUCC-0176167]")
0.3
>>> result_value("CN1CCN(c2ccc(Nc3nccc(-n4cnc5ccccc54)n3)cc2)CC1")
0.5
>>> result_value("Clc1cccc(-n2cc(-c3ccnc(NCc4ccncc4)n3)cn2)c1")
6
>>> result_value("c1ccc2c(c1)CCN2c1ccnc(N[C@H]2CCOC2)n1")
1.1
>>> result_value("Cn1cc(-c2ccnc(NCCN3CCOCC3)n2)cn1")
4
>>> result_value("c1cncc(CCNc2ccnc(-n3cnc4ccccc43)n2)c1")
0.21
>>> result_value("COc1cccc(-n2cc(-c3ccnc(NCc4ccccc4)n3)cn2)c1")
21
>>> result_value("c1ccc(Cn2cc(-c3ccnc(NCCc4c[nH]cn4)c3)cn2)cc1")
8
>>> result_value("CC(O)CNc1ccnc(-n2cnc3ccccc32)n1 (stereo not shown)")
0.71
>>> result_value("c1ccc2c(c1)ncn2-c1ccnc(NC2CCNC2)n1 (stereo not shown)")
0.15

(1) O=[N+]([O-])c1ccc(NCCNc2nccc(-n3cnc4ccccc43)n2)nc1
(2) c1ccc2c(c1)ncn2-c1ccnc(NN2CCOCC2)n1
INPUT: Out of 1 and 2 , name the one with the higher IC50. Your choice should be expressed through its label.
OUTPUT: 2

---

# ASSAY_SYSTEM: Mnk2 (Homo sapiens (Human), UniProt Q9HBH9)
# Sequence (Q9HBH9 whole entry): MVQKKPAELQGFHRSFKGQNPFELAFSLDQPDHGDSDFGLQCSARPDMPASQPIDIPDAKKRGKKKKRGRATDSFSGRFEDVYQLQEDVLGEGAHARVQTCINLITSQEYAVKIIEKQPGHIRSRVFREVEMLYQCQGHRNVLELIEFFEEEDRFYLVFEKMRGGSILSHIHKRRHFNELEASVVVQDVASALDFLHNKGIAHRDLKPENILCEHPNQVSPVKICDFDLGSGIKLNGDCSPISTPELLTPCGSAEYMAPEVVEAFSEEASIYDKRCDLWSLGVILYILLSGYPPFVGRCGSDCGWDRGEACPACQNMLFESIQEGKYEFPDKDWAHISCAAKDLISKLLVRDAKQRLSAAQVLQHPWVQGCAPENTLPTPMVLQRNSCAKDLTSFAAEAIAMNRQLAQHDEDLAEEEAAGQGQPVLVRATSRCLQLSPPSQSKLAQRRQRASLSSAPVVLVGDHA
# ASSAY_INFO: Mnk2 kinase inhibition, ADP-Glo ADP monitoring assay
# Type: biochemical
# REPORTED_CONDITIONS: ADP-Glo kinase assay; read-out: Mnk2 IC50
pIC50: −log10 of the molar value.
ASSAY_READOUT: pIC50

Illustrative cases are given below, each with its answer.
>>> result_value("O=C1CCCN1CCCNc1nccc(-n2cnc3ccccc32)n1")
6.11
>>> result_value("c1ccc2c(c1)CCN2c1ccnc(NCCc2ccncc2)n1")
5.33
>>> result_value("COc1cccc(-n2cc(-c3ccnc(NCCc4c[nH]cn4)n3)cn2)c1")
5.74

(1) c1cnc2ncn(-c3ccnc(NCCc4ccncc4)n3)c2c1
(2) COC1CCC(Nc2nccc(-n3cnc4ccccc43)n2)CC1 (centres unmarked) [NUCC-0176153]
INPUT: // pick min by pIC50: 1 , 2 Your choice should be expressed through its label.
OUTPUT: 1

(A) c1ccc2c(c1)OCCN2c1ccnc(NCCc2ccncc2)n1
(B) COC1CCC(Nc2nccc(-n3cnc4ccccc43)n2)CC1 (centres unmarked) [NUCC-0176167]
INPUT: Out of A and B , name the one with the higher pIC50. Your choice should be expressed through its label.
OUTPUT: B

---

# ASSAY_SYSTEM: Mnk2 (Homo sapiens (Human), UniProt Q9HBH9)
# ASSAY_INFO: Mnk2 kinase inhibition, ADP-Glo ADP monitoring assay
# Assay type: biochemical
# REPORTED_CONDITIONS: ADP-Glo kinase assay; unit inferred; read-out: Mnk2 IC50
pIC50: −log10 of the molar value.
ASSAY_READOUT: pIC50

>>> result_value("N#Cc1cnc(NCCc2ccncc2)nc1-n1cncn1")
"< 5.00"
>>> result_value("COC(=O)c1cnc(NCCc2ccncc2)nc1-n1cnc2ccccc21")
"< 5.00"
>>> result_value("Nc1cnc(NCCc2ccncc2)nc1-n1cnc2ccccc21")
"< 5.00"

We next turn to a different molecule, shown below.
INPUT: What pIC50 value was documented for this molecule, COC(=O)c1cc(-n2cnc3ccccc32)nc(NCCc2ccncc2)n1 ?
OUTPUT: < 5.00

---

# ASSAY_SYSTEM: Mnk2 (Homo sapiens (Human))
# ASSAY_INFO: Mnk2 kinase inhibition, ADP-Glo ADP monitoring assay
# Type: biochemical
# REPORTED_CONDITIONS: ADP-Glo kinase assay; read-out: Mnk2 IC50
ASSAY_READOUT: IC50 (nM)

(1) c1ccc2c(c1)ccn2-c1ccnc(NCCc2cnc[nH]2)n1 [NUCC-0060955]
(2) Clc1cnc(NCc2cccnc2)nc1-n1cnc2ccccc21
INPUT: Out of 1 and 2 , name the one with the higher IC50. Your choice should be expressed through its label.
OUTPUT: 1
(1: 5000 nM, 2: 1000 nM)

(P) O=C1NCCCCC1Nc1nccc(-n2cnc3ccccc32)n1 (stereo not shown)
(Q) COc1cccc(-n2cc(-c3ccnc(NC4CCNC4)n3)cn2)c1 (stereo not shown)
(R) Clc1cnc(NCCc2cccnc2)nc1-n1cnc2ccccc21
INPUT: Write the entries in order, lowest recorded IC50 first. List labels; respect the requested ordering.
OUTPUT: R, P, Q
(R: 250 nM, P: 500 nM, Q: 780 nM)
